Measured Target: HDAC6 enzyme (Homo sapiens, UniProt Q9UBN7)
Construct: transducing full length HDAC6 gene into Sf-9 insect cells; GST; purchased SignalChem; host or cells: Sf-9 insect cells
Sequence (Q9UBN7 1-1215): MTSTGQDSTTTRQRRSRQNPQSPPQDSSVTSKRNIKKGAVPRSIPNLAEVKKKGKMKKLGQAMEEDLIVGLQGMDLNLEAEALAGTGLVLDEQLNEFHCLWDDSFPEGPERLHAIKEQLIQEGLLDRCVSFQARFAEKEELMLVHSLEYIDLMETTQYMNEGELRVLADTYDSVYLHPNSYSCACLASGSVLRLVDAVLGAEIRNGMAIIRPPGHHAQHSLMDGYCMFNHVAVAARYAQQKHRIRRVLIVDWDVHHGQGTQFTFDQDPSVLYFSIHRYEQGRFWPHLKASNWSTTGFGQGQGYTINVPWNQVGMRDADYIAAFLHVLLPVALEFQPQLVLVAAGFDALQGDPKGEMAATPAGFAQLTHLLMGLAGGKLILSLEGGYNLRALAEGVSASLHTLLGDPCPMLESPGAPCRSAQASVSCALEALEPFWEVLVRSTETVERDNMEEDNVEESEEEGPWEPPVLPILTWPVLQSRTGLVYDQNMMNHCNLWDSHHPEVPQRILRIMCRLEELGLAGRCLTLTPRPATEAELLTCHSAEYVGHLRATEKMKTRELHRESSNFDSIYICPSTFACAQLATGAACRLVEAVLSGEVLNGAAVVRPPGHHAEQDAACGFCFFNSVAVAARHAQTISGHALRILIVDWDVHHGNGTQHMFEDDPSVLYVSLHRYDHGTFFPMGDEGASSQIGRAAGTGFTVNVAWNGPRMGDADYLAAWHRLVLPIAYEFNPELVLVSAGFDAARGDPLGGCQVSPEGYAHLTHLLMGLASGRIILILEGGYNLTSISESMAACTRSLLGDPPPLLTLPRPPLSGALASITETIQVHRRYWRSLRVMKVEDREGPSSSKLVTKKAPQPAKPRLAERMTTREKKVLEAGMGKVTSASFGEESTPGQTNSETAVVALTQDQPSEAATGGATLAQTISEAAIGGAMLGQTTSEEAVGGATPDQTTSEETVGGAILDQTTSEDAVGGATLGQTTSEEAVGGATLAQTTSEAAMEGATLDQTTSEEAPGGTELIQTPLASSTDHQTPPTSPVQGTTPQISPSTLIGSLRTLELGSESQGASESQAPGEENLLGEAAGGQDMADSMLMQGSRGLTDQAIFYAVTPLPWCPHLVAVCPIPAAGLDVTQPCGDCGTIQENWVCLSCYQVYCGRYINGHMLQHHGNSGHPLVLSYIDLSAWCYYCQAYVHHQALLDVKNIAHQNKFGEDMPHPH
Procedure Details: HDAC6 enzyme inhibitory activity (HDAC-Glo I/II Assay kit)
Format: biochemical
Measurement Conditions: 10 μM; wells without enzyme = 100% inhibition; read-out: HDAC6 inhibitory rate (%) (10 μM)
Property: inhibition at 10 µM (%)
Numbers only, in %.

Please review the entries below; each comes with its answer.
CC(C)(OC(=O)N[C@H]1[C@H](N2Cc3ncc(-c4nnc(C(F)F)o4)cc3C2=O)CCCC1(F)F)C(F)F | 99
O=C1c2cc(-c3nnc(C(F)F)o3)cnc2CN1Cc1ccc(Cl)cc1 | 97

Value sought for every listed compound: inhibition at 10 µM.
1. O=C1c2cc(-c3nnc(C(F)F)o3)cnc2CN1Cc1ccc(F)c(F)c1
2. CC(C)(C(=O)N[C@@H]1COCC[C@H]1N1Cc2c(F)cc(-c3nnc(C(F)F)o3)cc2C1=O)C(F)(F)F

1. 97
2. 101
